Here the recorded pEC50 is given for each entry.
# Test system: T-24
# test_description: Antiproliferative activity against human bladder carcinoma T24 cells
# Assay type: functional
# run_parameters: read-out: ED50 (the source's name)
Schema: pEC50 number; meaning minus log10 of the concentration expressed in molar units.

Recorded results for 3 molecules are shown here.
Which pEC50 is reported for this molecule? `Oc1cccc2c(O[C@@H]3OC[C@@H](O)[C@H](O)[C@H]3O)cccc12`
3.33

Param item = `Oc1ccc2ccccc2c1O` ; retrieve measured pEC50.
4.89

# query: pEC50 of entry `Oc1ccc2ccc(O)cc2c1`
4.52

More entries:
Need pEC50, item `Oc1ccc2cc(O[C@@H]3OC[C@@H](O)[C@H](O)[C@H]3O)ccc2c1`
4.00

# pEC50 lookup, item `Oc1cccc2cc(O[C@@H]3OC[C@@H](O)[C@H](O)[C@H]3O)ccc12`
3.22

Reported pEC50, molecule `Oc1cc(O[C@@H]2OC[C@@H](O)[C@H](O)[C@H]2O)c2ccccc2c1` : ____
4.00

Give its pEC50 value. Item: `Oc1c(O[C@@H]2OC[C@@H](O)[C@H](O)[C@H]2O)ccc2ccccc12`
3.80

Query: pEC50; subject: `Oc1ccc2ccc(O[C@@H]3OC[C@@H](O)[C@H](O)[C@H]3O)cc2c1`
3.30

For the molecule shown here, `Oc1ccc2cccc(O[C@@H]3OC[C@@H](O)[C@H](O)[C@H]3O)c2c1` , give the reported pEC50.
3.43

Could you tell me which pEC50 is on file for `Oc1cccc2cccc(O)c12` ?
5.00

Need pEC50, item `Oc1ccc2ccccc2c1O[C@@H]1OC[C@@H](O)[C@H](O)[C@H]1O`
3.82

Quick one: pEC50 of `Oc1ccc2c(O)cccc2c1` ?
4.70

Item `Oc1ccc2c(O[C@@H]3OC[C@@H](O)[C@H](O)[C@H]3O)cccc2c1` has what recorded pEC50?
3.90
